Molecular target: P. falciparum apicoplast DNA polymerase (Pf-apPOL) (Plasmodium falciparum)
Assay: Fluorescence-based high-throughput DNA polymerase assay (molecular beacon), primary screen and dose-response
Assay type: biochemical
Conditions: DRC-2; 90'; concentration 20
Source text: The HT assay employs a molecular beacon, a stem-loop DNA template with a Cy3 dye and the Black Hole Quencher on the 3′ and 5′ ends of the DNA, respectively. Pf-apPOL concentration is based on a calculated absorptivity of ε280 = 56750 M^−1 cm^−1. […] To identify apPOL inhibitors we utilised our previously developed high-throughput DNA polymerase assay. […] The assay accurately recapitulates the kinetic behaviour of apPOL, as measured through more conventional low-throughput gel-based assays. […]
Reported % inhibition ApPOL 90' values for a set of compounds
Note: unit % is implicit; provide only the numeric part.

compound	value_unit	quantitative_readout
O=C1C(=Cc2ccncc2)Oc2c1ccc1c2CN(Cc2ccc3c(c2)OCO3)CO1 [KU0199357]	%	27
Cl.NC(CO)C(=O)NNCc1ccc(O)c(O)c1O (stereo not drawn) [KU0260493]	%	60

Now consider a different compound.
Looking for the measured % inhibition ApPOL 90' of Cc1cccc(CC(=O)N2CCc3c(nc4cc(-c5ccccc5)[nH]n4c3=O)C2)c1 [Molecule 12] , can you help? 66

====

// reported % inhibition Apo pol 10' per item
Molecular target: P. falciparum apicoplast DNA polymerase (Pf-apPOL) (Plasmodium falciparum, UniProt Q8ILY1)
Sequence (Q8ILY1 entry or part of it): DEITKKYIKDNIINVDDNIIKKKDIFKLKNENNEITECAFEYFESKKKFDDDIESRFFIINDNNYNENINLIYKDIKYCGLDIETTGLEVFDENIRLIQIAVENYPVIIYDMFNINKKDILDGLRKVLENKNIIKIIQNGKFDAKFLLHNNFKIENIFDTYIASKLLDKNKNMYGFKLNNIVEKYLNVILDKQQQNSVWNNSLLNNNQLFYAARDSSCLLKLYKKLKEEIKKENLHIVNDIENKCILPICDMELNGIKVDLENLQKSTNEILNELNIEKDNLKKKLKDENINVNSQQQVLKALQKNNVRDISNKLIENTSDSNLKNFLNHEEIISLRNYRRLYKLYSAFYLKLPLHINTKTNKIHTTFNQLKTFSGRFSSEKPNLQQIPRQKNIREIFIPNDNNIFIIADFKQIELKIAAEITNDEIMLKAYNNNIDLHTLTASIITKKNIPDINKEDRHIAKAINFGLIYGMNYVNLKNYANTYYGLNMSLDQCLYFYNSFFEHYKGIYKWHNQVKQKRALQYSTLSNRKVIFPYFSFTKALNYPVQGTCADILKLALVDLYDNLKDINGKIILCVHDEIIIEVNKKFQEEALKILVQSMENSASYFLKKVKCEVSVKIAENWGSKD
Experiment: Fluorescence-based high-throughput DNA polymerase assay (molecular beacon), primary screen and dose-response
Format: biochemical
Conditions: DRC-1; concentration 2.5; 10'

molecule	% inhibition Apo pol 10'
CCCN1COc2ccc3c(=O)c(-c4ccccc4)coc3c2C1 [KU0199556]	3.335%

Tell me the measured % inhibition Apo pol 10' of O=C(O)c1nc(-c2ccccc2)nc2c1OCO2 [Molecule 45, OC(=O)c1nc(nc2c1OCO2)c1ccccc1] , please. 6.785%

Would you mind doing CCOc1ccc2cc(C3=NN(C(=O)CCC(=O)O)C(c4ccc(C)cc4)C3)c(=O)[nH]c2c1 (stereo not shown) [KU0056200] as well? 1.583%

Same read-out for COc1ccc(NC(=O)Cn2nc3c(cc2=O)CCC3)cc1Cl [Molecule 4, COc1ccc(cc1Cl)NC(=O)Cn1nc2CCCc2cc1=O] ? -1.67%

====

Molecular target: bacteriophage T4 DNA polymerase (Enterobacteria phage T4, UniProt P04415)
Construct: made in house
Sequence (P04415 whole entry): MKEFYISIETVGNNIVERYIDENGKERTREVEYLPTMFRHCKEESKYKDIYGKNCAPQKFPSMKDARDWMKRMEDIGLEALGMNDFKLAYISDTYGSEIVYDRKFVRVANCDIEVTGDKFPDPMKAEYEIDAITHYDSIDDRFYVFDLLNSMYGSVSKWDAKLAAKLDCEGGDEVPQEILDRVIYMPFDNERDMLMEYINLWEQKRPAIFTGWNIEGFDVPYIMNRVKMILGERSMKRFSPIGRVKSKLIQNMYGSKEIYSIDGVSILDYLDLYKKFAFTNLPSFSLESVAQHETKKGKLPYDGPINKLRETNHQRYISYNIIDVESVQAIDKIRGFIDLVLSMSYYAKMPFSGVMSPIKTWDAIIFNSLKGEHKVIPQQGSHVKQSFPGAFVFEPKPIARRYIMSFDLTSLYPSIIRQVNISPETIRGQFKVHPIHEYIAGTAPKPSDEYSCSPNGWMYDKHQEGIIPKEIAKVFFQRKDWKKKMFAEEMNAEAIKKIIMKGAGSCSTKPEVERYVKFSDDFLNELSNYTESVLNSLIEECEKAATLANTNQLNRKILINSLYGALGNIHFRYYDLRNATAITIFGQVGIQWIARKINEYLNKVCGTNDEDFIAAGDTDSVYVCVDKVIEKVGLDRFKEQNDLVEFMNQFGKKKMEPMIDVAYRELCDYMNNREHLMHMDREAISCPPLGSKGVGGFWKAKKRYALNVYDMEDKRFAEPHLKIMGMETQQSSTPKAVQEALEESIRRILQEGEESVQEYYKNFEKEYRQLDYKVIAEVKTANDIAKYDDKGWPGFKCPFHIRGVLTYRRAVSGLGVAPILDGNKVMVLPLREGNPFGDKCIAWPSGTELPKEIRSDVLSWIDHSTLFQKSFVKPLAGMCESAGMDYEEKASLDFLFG
Assay: Counter-screen against bacteriophage T4 DNA polymerase
Type: biochemical
Conditions: DRC-1; read at 70'; concentration 40
Here, each record is paired with measured % inhibition T4 70' 40 data.
Express the result in % but write the number alone.

Examples with answers:
structure_as_smiles	assayed_system	% inhibition T4 70' 40 / %
O=C(c1ccccc1)N1CCc2c(nc3cc(-c4ccccc4)[nH]n3c2=O)C1	bacteriophage T4 DNA polymerase (Enterobacteria phage T4, UniProt P04415)	-0.06602
COc1ccc(/C=C/c2cc(C(=O)O)c3ccccc3n2)cc1	bacteriophage T4 DNA polymerase (Enterobacteria phage T4, UniProt P04415)	2.364

Please look at the following molecule next.
Which % inhibition T4 70' 40 is reported for this molecule? COc1ccccc1CC(=O)N1CCc2c(nc3cc(-c4ccccc4Cl)[nH]n3c2=O)C1 -18

====

Reported % inhibition Apol 90' by item:
Target: UniProt:Q8ILY1
Experiment: Fluorescence-based high-throughput DNA polymerase assay (molecular beacon), primary screen and dose-response
Format: biochemical
Details: DRC-1; concentration 80; 90'
Output spec: scalar in %, unitless text.

compound	% inhibition Apol 90' [%]
CCCN1COc2ccc3c(=O)c(-c4ccccc4)coc3c2C1	77.7995
CCOc1ccc2cc(C3=NN(C(=O)CCC(=O)O)C(c4ccc(C)cc4)C3)c(=O)[nH]c2c1 (centres unmarked)	90.0975
CCCCCc1c2c(cc(O)c1C(=O)O)OC(=O)c1c(cc(OC)cc1C(=O)CCCC)O2	93.64
COc1ccc(-c2occ(C(=O)O)c2C(=O)O)cc1	92.3135
O=C(Cc1cccs1)N1CCN(c2nc(CN3CCOCC3)cs2)CC1	86
Cc1cc(C)nc(Nc2nc(CC(=O)Nc3nc(-c4ccco4)cs3)cs2)n1	86.9682
O=C(O)c1cc([N+](=O)[O-])c(N2CCN(c3cccc(C(F)(F)F)c3)CC2)c([N+](=O)[O-])c1	92.5623
Nc1ncnc(NC2CCCCC2)c1[N+](=O)[O-]	82.4548
O=C(O)c1nc(-c2ccccc2)nc2c1OCO2	92.7909
COc1ccc(C=C2Oc3c(ccc4c3CN(Cc3ccco3)CO4)C2=O)c(OC)c1	78.9077

For the compound Cc1ccnc(NS(=O)(=O)c2ccc(-n3cccc3)cc2)n1 , what % inhibition Apol 90' is on record? 92.1996

And O=C(Cn1ccc2c(=O)[nH]ccc21)Nc1ccccc1Cl [Molecule 19, O=C(Cn1ccc2c1cc[nH]c2=O)Nc1ccccc1Cl] ? 86.1065

Do the same for O=C(Nc1c2c(nn1-c1ccccc1)CSC2)c1ccco1 please 91.2919

Now consider O=[N+]([O-])c1ccc(SCc2ccco2)c2cccnc12 . 91.6594

What do we get for CCc1ccccc1NC(=O)c1ccc(-c2ncccc2NC(C)=O)cc1 ? 90.3611
